System under test: MEK1^CA (human GST-MEK1, constitutively active, Ser218Asp and Ser222Asp) (Homo sapiens, UniProt Q02750, S218D/S222D)
Construct: GST; made in house; host or cells: Escherichia coli
Sequence (Q02750 whole entry S218D/S222D): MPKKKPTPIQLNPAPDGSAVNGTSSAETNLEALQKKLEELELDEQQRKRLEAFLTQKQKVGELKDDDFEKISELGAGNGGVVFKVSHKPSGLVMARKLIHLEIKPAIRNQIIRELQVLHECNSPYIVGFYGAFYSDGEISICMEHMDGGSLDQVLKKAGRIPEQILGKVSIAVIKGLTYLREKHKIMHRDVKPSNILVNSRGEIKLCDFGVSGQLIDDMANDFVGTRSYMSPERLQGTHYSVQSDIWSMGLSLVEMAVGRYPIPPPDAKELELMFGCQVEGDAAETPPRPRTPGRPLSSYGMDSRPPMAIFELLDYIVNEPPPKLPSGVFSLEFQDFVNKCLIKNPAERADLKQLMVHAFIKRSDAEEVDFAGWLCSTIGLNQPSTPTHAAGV
Test method notes: MEK1 enzymatic activity assay (MEK1^CA / ERK2 / MBP, [γ-33P]ATP incorporation)
Assay type: biochemical
Condition set: Table 1, compounds of formula I; read-out: Avg IC50
pIC50: −log10 of the molar value.
Below: a set of entries, each annotated with reported pIC50.

# Compound, Assay metric, Recorded result
data = [
    ("CC(C)NC(=N)c1c(O)nsc1Nc1ccc(Sc2ccccc2)cc1", "pIC50", "7.00 to 9.00"),
    ("CC(C)(C)NC(=N)c1c(O)nsc1Nc1ccc(Oc2ccccc2)cc1", "pIC50", "7.00 to 9.00"),
]

Item "CCCCCCCNC(=N)c1c(O)nsc1Nc1ccc(Oc2ccccc2)cc1" : provide pIC50 7.00 to 9.00

Item "N=C(NCCN1CCCCC1)c1c(O)nsc1Nc1ccc(Oc2ccccc2)cc1" : provide pIC50 6.30 to 7.00

Item "COC(=O)c1ccccc1Oc1ccc(Nc2snc(O)c2C(=N)NC(C)C)cc1" : provide pIC50 7.00 to 9.00

Item "CC(C)NC(=N)c1c(O)nsc1Nc1ccccc1Oc1ccccc1" : provide pIC50 6.30 to 7.00

----------
Below: a set of entries, each annotated with reported pIC50.
System under test: MEK1^CA (human GST-MEK1, constitutively active, Ser218Asp and Ser222Asp) (Homo sapiens, UniProt Q02750, S218D/S222D)
Construct: GST; made in house; host or cells: Escherichia coli
Test method notes: MEK1 enzymatic activity assay (MEK1^CA / ERK2 / MBP, [γ-33P]ATP incorporation)
Format: biochemical
Condition set: Table 1, compounds of formula I; read-out: Avg IC50
pIC50: −log10 of the molar value.

Some compounds with known pIC50 results, for comparison:
# Compound, pIC50
records = [
    ("CCC(CO)NC(=N)c1c(O)nsc1Nc1ccc(Oc2ccccc2)cc1 (stereo not drawn)", "6.30 to 7.00"),
    ("N=C(NCCO)c1c(O)nsc1Nc1ccc(I)cc1", "< 6.30"),
]

Kindly consider the entry below.
Item "N=C(c1c(O)nsc1Nc1ccc(Oc2ccc(Cl)cc2Cl)cc1)N1CCCCC1" : provide pIC50 < 6.30

----------
System under test: MEK1^CA (human GST-MEK1, constitutively active, Ser218Asp and Ser222Asp) (Homo sapiens, UniProt Q02750, S218D/S222D)
Construct: GST; made in house; host or cells: Escherichia coli
Test method notes: MEK1 enzymatic activity assay (MEK1^CA / ERK2 / MBP, [γ-33P]ATP incorporation)
Type: biochemical
Condition set: Table 1, compounds of formula I; read-out: Avg IC50
pIC50: −log10 of the molar value.
Assay metric: pIC50

# Compound, Recorded result
records = [
    ("Cc1cc(Oc2cc(Cl)ccc2Cl)ccc1Nc1snc(O)c1C(=N)NC(C)CO (centres unmarked) [compound 461]", "7.00 to 9.00"),
    ("CC(CO)NC(=N)c1c(O)nsc1Nc1ccc(Oc2ccc(C(F)(F)F)cc2)cc1 (centres unmarked) [compound 377]", "< 6.30"),
    ("N=C(NN1CCCCC1)c1c(O)nsc1Nc1ccc(Oc2cc(Cl)ccc2Cl)cc1 [compound 449]", "7.00 to 9.00"),
    ("N=C(NCC1CCCCC1)c1c(O)nsc1NC12CC3CC(CC(C3)C1)C2 [compound 92]", "< 6.30"),
    ("Cc1ccc(Nc2snc(O)c2C(=N)N2CCc3ccccc3C2)cc1 [Cpd 8]", "< 6.30"),
]

Item CCOC(=O)c1cccc(Nc2snc(O)c2C(=N)NC(C)C)c1 [compound 488] : provide pIC50 < 6.30

Item CC(C)NC(=N)c1c(O)nsc1Nc1ccc(OC2CCNCC2)cc1 [compound 253] : provide pIC50 < 6.30

Item CC(O)CNC(=N)c1c(O)nsc1Nc1ccc(Oc2ccccc2)cc1 (centres unmarked) [compound 156] : provide pIC50 6.30 to 7.00
